Target: TDO2 in A172 cancer cells (Homo sapiens, UniProt P48775)
Construct: endogenous in cells
Sequence (P48775 whole entry): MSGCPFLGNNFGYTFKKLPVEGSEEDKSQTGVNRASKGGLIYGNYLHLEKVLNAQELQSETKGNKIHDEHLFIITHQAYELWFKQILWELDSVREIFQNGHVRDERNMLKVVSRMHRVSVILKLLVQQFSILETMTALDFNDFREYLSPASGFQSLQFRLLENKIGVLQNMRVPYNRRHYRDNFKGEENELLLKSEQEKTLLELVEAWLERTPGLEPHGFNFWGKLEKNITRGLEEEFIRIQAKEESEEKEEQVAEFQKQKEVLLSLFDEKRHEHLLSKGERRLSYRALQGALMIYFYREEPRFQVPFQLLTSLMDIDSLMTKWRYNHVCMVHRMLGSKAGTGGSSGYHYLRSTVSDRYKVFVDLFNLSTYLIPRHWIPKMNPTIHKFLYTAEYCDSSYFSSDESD
Test: TDO2 Cellular Assay (kynurenine production in A172 cancer cells)
Details: L-Trp 1 mM, 24 hours incubation, kynurenine at 490 nm
Reported values of IC50 for individual entries

Recorded results for 2 molecules are shown here.
# line_notation, experimental_system, IC50
measured = [
    ("CS(=O)(=O)N[C@H]1[C@@H]2C[C@@](O)(c3cc(C(F)(F)F)cc4[nH]ncc34)C[C@@H]21", "TDO2 in A172 cancer cells (Homo sapiens, UniProt P48775)", "≤ 500 nM"),
    ("O=C(CC(F)(F)F)N[C@H]1[C@@H]2C[C@@](O)(c3cc(Cl)cc4[nH]ncc34)C[C@@H]21", "TDO2 in A172 cancer cells (Homo sapiens, UniProt P48775)", "≤ 500 nM"),
]

Field: next molecule
Entry "O=C(N[C@H]1[C@@H]2C[C@@](O)(c3cc(Cl)cc4[nH]ncc34)C[C@@H]21)c1cccc(Br)c1" : reported IC50 = ?
≤ 500 nM

====

Target: IDO1 in Hela cancer cells (Homo sapiens, UniProt P14902)
Construct: endogenous in cells
Sequence (P14902 whole entry): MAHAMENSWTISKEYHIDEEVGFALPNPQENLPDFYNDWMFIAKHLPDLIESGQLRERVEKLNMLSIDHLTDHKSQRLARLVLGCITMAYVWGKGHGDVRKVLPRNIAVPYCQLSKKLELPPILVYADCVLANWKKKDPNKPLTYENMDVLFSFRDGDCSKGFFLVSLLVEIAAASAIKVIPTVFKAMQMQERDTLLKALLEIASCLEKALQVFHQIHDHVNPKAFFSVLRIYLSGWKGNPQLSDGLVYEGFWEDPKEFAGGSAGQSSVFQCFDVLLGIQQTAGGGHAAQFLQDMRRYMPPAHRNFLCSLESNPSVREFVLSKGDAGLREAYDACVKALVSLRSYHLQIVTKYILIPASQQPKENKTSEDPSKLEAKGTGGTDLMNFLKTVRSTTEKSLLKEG
Experiment: IDO1 Cellular Assay (kynurenine production in IFN-γ stimulated Hela cancer cells)
Details: human IFN-γ 50 ng/mL, 48 hours incubation, kynurenine at 490 nm
pIC50: −log10 of the molar value.
readout_type: pIC50

# compound, test_result
data = [
    ("O=C(N[C@H]1[C@@H]2C[C@@](O)(c3cc(Cl)cc4[nH]ncc34)C[C@@H]21)c1cccc(F)c1 [Example 143]", "≥ 6.30"),
    ("O[C@@]1(c2cc(Cl)cc3[nH]ncc23)C[C@H]2CN(c3ccncc3)C[C@H]2C1 [Example 116]", "< 5.30"),
    ("O=C(N[C@H]1[C@@H]2C[C@@](O)(c3cc(Cl)cc4[nH]ncc34)C[C@@H]21)c1cncc(F)c1 [Example 173]", "6.00 to 6.30"),
    ("O=C(Nc1ccc(F)cc1)N[C@H]1[C@@H]2C[C@@](O)(c3cc(Cl)cc4[nH]ncc34)C[C@@H]21 [Example 147]", "5.30 to 6.00"),
    ("O=S(=O)(N[C@H]1[C@@H]2C[C@@](O)(c3cc(Cl)cc4[nH]ncc34)C[C@@H]21)c1ccccc1 [Example 95]", "< 5.30"),
]

Entry CS(=O)(=O)c1cccc(C(=O)N[C@H]2[C@@H]3C[C@@](O)(c4cc(Cl)cc5[nH]ncc45)C[C@@H]32)c1 [Example 153] : reported pIC50 = ?
5.30 to 6.00

Entry O=C(N[C@H]1[C@@H]2C[C@@](O)(c3cc(Cl)cc4[nH]ncc34)C[C@@H]21)c1ccc(F)c(C(F)(F)F)c1 [Example 172] : reported pIC50 = ?
≥ 6.30

====

Target: IDO1 in Hela cancer cells (Homo sapiens, UniProt P14902)
Construct: endogenous in cells
Test: IDO1 Cellular Assay (kynurenine production in IFN-γ stimulated Hela cancer cells)
Settings: human IFN-γ 50 ng/mL, 48 hours incubation, kynurenine at 490 nm
readout_type: IC50

Recorded results for 5 compounds are shown here.
# compound, test_result
data = [
    ("O=S(=O)(c1ccccc1)N1C[C@@H]2C[C@@](O)(c3cc(Cl)cc4cn[nH]c34)C[C@@H]2C1", "> 5 µM"),
    ("O=S(=O)(C1CC1)N1C[C@@H]2C[C@@](O)(c3cc(Cl)cc4cn[nH]c34)C[C@@H]2C1", "> 5 µM"),
    ("O=C(N[C@H]1[C@@H]2C[C@@](O)(c3cc(Cl)cc4[nH]ncc34)C[C@@H]21)c1ccncc1", "0.5 to 1 µM"),
    ("O=S(=O)(CC(F)(F)F)N[C@H]1[C@@H]2C[C@@](O)(c3cc(Cl)cc4[nH]ncc34)C[C@@H]21", "0.5 to 1 µM"),
    ("CC(=O)N1C[C@@H]2C[C@@](O)(c3cc(Cl)cc4cn[nH]c34)C[C@@H]2C1", "> 5 µM"),
]

Entry "O[C@@]1(c2cc(Cl)cc3cn[nH]c23)C[C@H]2C[C@H]2C1" : reported IC50 = ?
> 5 µM

Entry "O=C(NC1CC1)N[C@H]1[C@@H]2C[C@@](O)(c3cc(Cl)cc4[nH]ncc34)C[C@@H]21" : reported IC50 = ?
> 5 µM

Entry "COc1ccccc1-c1c[nH]cc1C(=O)N[C@H]1[C@@H]2C[C@@](O)(c3cc(Cl)cc4[nH]ncc34)C[C@@H]21" : reported IC50 = ?
> 5 µM

Entry "O=C(N[C@H]1[C@@H]2C[C@@](O)(c3cc(Cl)cc4[nH]ncc34)C[C@@H]21)c1ccc(F)c(F)c1" : reported IC50 = ?
≤ 0.5 µM

Entry "O=C(C1CC1)N1C[C@@H]2C[C@@](O)(c3cc(Cl)cc4cn[nH]c34)C[C@@H]2C1" : reported IC50 = ?
> 5 µM

Entry "O[C@@H]1C[C@@H]2C[C@@](O)(c3cc(Cl)cc4cn[nH]c34)C[C@@H]2C1" : reported IC50 = ?
> 5 µM

Entry OCC1[C@H]2C[C@](O)(c3cc(Cl)cc4[nH]ncc34)C[C@@H]12 (stereo partly drawn) : reported IC50 = ?
1 to 5 µM

Entry "O=C(N[C@H]1[C@@H]2C[C@@](O)(c3cc(Cl)cc4cn[nH]c34)C[C@@H]21)C1CC1" : reported IC50 = ?
> 5 µM

Entry CC(=O)N1C[C@@H]2CN(c3c(C4CC4)ccc4cncn34)C[C@@H]2C1(C)C (racemic) : reported IC50 = ?
> 5 µM

====

Target: IDO1 in Hela cancer cells (Homo sapiens)
Construct: endogenous in cells
Assay: IDO1 Cellular Assay (kynurenine production in IFN-γ stimulated Hela cancer cells)
Settings: human IFN-γ 50 ng/mL, 48 hours incubation, kynurenine at 490 nm
pIC50: −log10 of the molar value.
readout_type: pIC50

Entry CC(=O)N1C[C@H]2CC(C(O)c3cc(Cl)cc4[nH]ncc34)C[C@H]2C1 (stereo partly drawn) : reported pIC50 = ?
< 5.30

Entry "O=C(N[C@H]1[C@@H]2C[C@@](O)(c3cc(Cl)cc4[nH]ncc34)C[C@@H]21)c1cccc(-c2ccccc2)c1" : reported pIC50 = ?
6.00 to 6.30

Entry "CC(=O)N[C@H]1[C@@H]2C[C@@](O)(c3cc(Cl)cc4[nH]ncc34)C[C@@H]21" : reported pIC50 = ?
< 5.30

====

Target: TDO2 in A172 cancer cells (Homo sapiens, UniProt P48775)
Construct: endogenous in cells
Test: TDO2 Cellular Assay (kynurenine production in A172 cancer cells)
Settings: L-Trp 1 mM, 24 hours incubation, kynurenine at 490 nm
Reported values of IC50 for individual entries

# compound, test_result
data = [
    ("O=S(=O)(CC(F)(F)F)N[C@H]1[C@@H]2C[C@@](O)(c3cc(Cl)cc4[nH]ncc34)C[C@@H]21 [Example 139]", "≤ 500 nM"),
    ("CC1(C)C2CN(c3cc(Cl)cc4[nH]ncc34)CC2CN1C(=O)c1ccc(C#N)cc1 (stereo not shown) [Example 27]", "500 to 1000 nM"),
    ("CC(C)C(=O)N[C@H]1[C@@H]2C[C@@](O)(c3cc(Cl)cc4[nH]ncc34)C[C@@H]21 [Example 92]", "≤ 500 nM"),
]

Entry O=C(Nc1cccc(Cl)c1)N[C@H]1[C@@H]2C[C@@](O)(c3cc(Cl)cc4[nH]ncc34)C[C@@H]21 [Example 122] : reported IC50 = ?
1000 to 5000 nM

Entry CC(=O)N1CC2CN(c3cc(Cl)cc4[nH]ncc34)CC2C1(C)C (stereo not shown) [Example 18] : reported IC50 = ?
≤ 500 nM

====

Target: IDO1 in Hela cancer cells (Homo sapiens, UniProt P14902)
Construct: endogenous in cells; host or cells: Hela cancer cells stimulated with human IFN-γ
Assay: IDO1 Cellular Assay (kynurenine production in IFN-γ stimulated Hela cancer cells)
Format: cell-based
Details: human IFN-γ 50 ng/mL, 48 hours incubation, kynurenine at 490 nm
Reported values of IC50 for individual entries

Entry O=C(N[C@H]1[C@@H]2C[C@@](O)(c3cc(Cl)cc4[nH]ncc34)C[C@@H]21)c1cc(F)cc(Cl)c1 [Example 152] : reported IC50 = ?
500 to 1000 nM

Entry Cc1cc(C(=O)N[C@H]2[C@@H]3C[C@@](O)(c4cc(Cl)cc5[nH]ncc45)C[C@@H]32)no1 [Example 154] : reported IC50 = ?
500 to 1000 nM

Entry O=C(N[C@H]1[C@@H]2C[C@@](O)(c3cc(C(F)(F)F)cc4[nH]ncc34)C[C@@H]21)c1cccc(Cl)c1 [Example 163] : reported IC50 = ?
≤ 500 nM

Entry CC(=O)N1C[C@@H]2CN(c3cc(Cl)cn4cncc34)C[C@@H]2C1(C)C (racemic) [Example 41] : reported IC50 = ?
> 5000 nM

Values were extracted from patent US11548868B2.
